Please respond with reported IC50 for every item in the list.
Target: KDM5B (Homo sapiens, UniProt Q9UGL1)
Construct: (a.a. 1-752)
Sequence (Q9UGL1 1-752): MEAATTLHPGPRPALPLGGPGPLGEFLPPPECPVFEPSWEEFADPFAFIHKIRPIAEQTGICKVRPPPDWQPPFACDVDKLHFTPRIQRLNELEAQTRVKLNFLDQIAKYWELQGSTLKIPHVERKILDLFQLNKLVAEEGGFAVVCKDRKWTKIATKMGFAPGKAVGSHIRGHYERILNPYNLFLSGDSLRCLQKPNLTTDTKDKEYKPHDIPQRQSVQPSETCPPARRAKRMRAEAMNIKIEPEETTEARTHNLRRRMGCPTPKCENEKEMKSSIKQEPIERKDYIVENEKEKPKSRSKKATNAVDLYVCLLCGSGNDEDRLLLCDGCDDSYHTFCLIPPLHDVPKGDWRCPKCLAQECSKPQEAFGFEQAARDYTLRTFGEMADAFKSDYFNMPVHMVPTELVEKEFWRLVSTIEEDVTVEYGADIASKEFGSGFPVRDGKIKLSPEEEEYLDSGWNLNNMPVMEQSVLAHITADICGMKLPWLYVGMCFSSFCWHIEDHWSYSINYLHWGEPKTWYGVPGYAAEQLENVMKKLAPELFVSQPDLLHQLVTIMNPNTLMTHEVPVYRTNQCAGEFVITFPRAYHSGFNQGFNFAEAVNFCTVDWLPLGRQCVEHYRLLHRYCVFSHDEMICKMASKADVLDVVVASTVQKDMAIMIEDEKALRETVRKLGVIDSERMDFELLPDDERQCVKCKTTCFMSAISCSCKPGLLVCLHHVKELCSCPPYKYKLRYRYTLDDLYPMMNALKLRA
Test: Histone lysine demethylase immunofluorescence assay, U2OS cells transfected with KDM5B
Details: U2OS cells transfected with pCMVHA KDM5B; mark detected H3K4me2; 20 hours

Req: Consider the molecule shown here: "c1ccc(CN2CCC[C@H]2CNCc2cc(CNCC3CC3)ccn2)cc1" What is its recorded IC50?
Resp: > 2.5 µM

Req: Item "CN(C)CCNCc1ccnc(CNCC(=O)N(C)C)c1" has what recorded IC50?
Resp: 0.25 to 2.5 µM

Req: So what does the record say about IC50 for "CCN(CC)CCCCNCc1cc(/C=N\CCC2CCCCC2)ccn1" ?
Resp: < 0.25 µM

Req: Recorded IC50 of "O=Cc1ccnc(CNCC(=O)N2CCC[C@@H]2CN2CCCC2)c1" , please.
Resp: 0.25 to 2.5 µM

Req: Need IC50 of "CCN(CC)CCCCNCc1cc(C=O)ccn1" , thanks.
Resp: < 0.25 µM

Req: // returns reported IC50 for input "CCN(CC)CCCCN(Cc1cc(C=O)ccn1)C(=O)C(F)(F)F"
Resp: < 0.25 µM

Req: What does the record list as IC50 for "CN(C)C/C=C\CNCc1cc(C=O)ccn1" ?
Resp: > 2.5 µM

Req: For "CN(C)CCNCc1cc(C=O)ccn1" , what is its reported IC50?
Resp: 0.25 to 2.5 µM

Req: Which IC50 is listed for CCN(CCN(C)C)C(=O)CNCc1cc(C2OCC(Cc3ccccc3)CN2C(=O)C(F)(F)F)ccn1 (stereo not shown) ?
Resp: < 0.25 µM

Req: Name the reported IC50 value associated with the molecule CC1CC1/N=C/c1ccnc(CNCC(=O)N(C)C)c1 (stereo not shown)
Resp: 0.25 to 2.5 µM

Req: Returns the measured IC50 for the input molecule. Input: "CCN(CCC#N)C(=O)CNCc1cc(/C=N/C2CC2)ccn1"
Resp: 0.25 to 2.5 µM

Req: State the recorded IC50 for this entry: "O=Cc1ccnc(CNCC(=O)N2CCC(Cc3ccccc3)CC2)c1"
Resp: > 2.5 µM

Req: Given the molecule "CCN(CCC#N)C(=O)CNCc1cc(/C=N/CCO)ccn1" , what is its reported IC50?
Resp: 0.25 to 2.5 µM

Req: Using the record for "CN(C)CCCNCc1cc(/C=N/CCN(C)C)ccn1" , report its IC50.
Resp: < 0.25 µM

Req: Item "COc1ccccc1CN1CCC(NC(=O)CNCc2cc(CN)ccn2)CC1" has what recorded IC50?
Resp: 0.25 to 2.5 µM

Req: Could you tell me which IC50 is on file for "CCN(CC)CCCCNC(=O)CNCc1cc(C=O)ccn1" ?
Resp: > 2.5 µM

Req: Using the record for "CCN(CCN(C)C)C(=O)CNCc1cc(CN)ccn1" , report its IC50.
Resp: < 0.25 µM

Req: Would you mind telling me what IC50 value was observed for CCN(CC)CCCCNCc1cc(C2NCCN2C)ccn1 (stereo not shown) ?
Resp: < 0.25 µM

Req: Can you look up the measured IC50 of "CCN(CC)CCCCNCc1cc(/C=N/CC(F)(F)C(F)(F)F)ccn1" for me?
Resp: < 0.25 µM

Req: Requested field: IC50. Item: "COCCNCc1ccnc(CNCCCN(C)Cc2ccccc2)c1"
Resp: > 2.5 µM

Req: So what's the measured IC50 for this one? CC(C#N)NCc1ccnc(CNCCCN(C)C)c1 (stereo not shown)
Resp: < 0.25 µM

Req: Which measured IC50 value corresponds to "CN(Cc1ccccc1F)C(=O)CNCc1cc(/C=N/CCO)ccn1" ?
Resp: > 2.5 µM

Req: // query IC50 value for entry "N#CCNCc1ccnc(CNCCCCN(Cc2ccccc2)C2CC2)c1"
Resp: 0.25 to 2.5 µM

Req: Fill in the blank: the reported IC50 of "O=Cc1ccnc(CNCCCN2CCCC2)c1" is ____.
Resp: < 0.25 µM

Req: Entry CCN1CCCC1CNC(=O)CNCc1cc(C=O)ccn1 (stereo not shown) has what IC50?
Resp: 0.25 to 2.5 µM

Req: Looking for the measured IC50 of "CN(C)CCCNCc1cc(CN)ccn1" , can you help?
Resp: < 0.25 µM

Req: Can you look up the measured IC50 of CCN1CCCC1CNC(=O)CNCc1cc(/C=N/C2CC2)ccn1 (stereo not shown) for me?
Resp: 0.25 to 2.5 µM

Req: Fill blank: measured IC50 of the molecule "O=C(CNCc1cc(/C=N/C2CC2)ccn1)N1CCC(Cc2ccccc2)CC1" is ____.
Resp: > 2.5 µM
